tested on: MDA-MB-453; assay: normalised response (% of control), CellTiter-Glo; higher = more viable cells (100 = DMSO, 0 = benzethonium chloride kill control); conditions: incubation time: 72 h
A collection of molecules and their measured normalised response

| molecule | units text | normalised response |
| --- | --- | --- |
| Cc1nc(Nc2ncc(C(=O)Nc3c(C)cccc3Cl)s2)cc(N2CCN(CCO)CC2)n1 [Dasatinib] (10 nM) | % | 99.5 |
| CS(=O)(=O)N1CCN(Cc2cc3nc(-c4cccc5[nH]ncc45)nc(N4CCOCC4)c3s2)CC1 [Pictilisib] (100 nM) | % | 88.5 |
| Cc1c(CN2CCN(C(=O)[C@H](C)O)CC2)sc2c(N3CCOCC3)nc(-c3cnc(N)nc3)nc12 [GDC-0980] (100 nM) | % | 75.8 |
| Cc1c(Cn2c(C)nc3c(C(=O)O)cc(N4CCOCC4)cc32)cccc1C(F)(F)F (100 nM) | % | 91.3 |
| Nc1cccc2c1CN(C1CCC(=O)NC1=O)C2=O (configuration not stated) [Lenalidomide] (100 nM) | % | 103 |
| CC(C)N(CCCNC(=O)Nc1ccc(C(C)(C)C)cc1)C[C@H]1O[C@@H](n2cc(Br)c3c(N)ncnc32)[C@H](O)[C@@H]1O [SGC0946] (100 nM) | % | 91 |
| CC/C(=C(\c1ccc(O)cc1)c1ccc(OCCN(C)C)cc1)c1ccccc1 [4-hydroxytamoxifen] (100 nM) | % | 111 |

----------
tested on: CAL-51; assay: normalised viability (% of control), CellTiter-Blue; higher = more viable cells (about 100 = DMSO control); conditions: incubation time: 72 h
A collection of compounds and their measured normalised viability
property: normalised viability (%)

| compound | tested on | units text | measured value |
| --- | --- | --- | --- |
| O=S(=O)(c1cccc2cnccc12)N1CCCNCC1 [Fasudil] (1000 nM) | CAL-51 | % | 115 |
| CC[C@@]1(O)C(=O)OCc2c1cc1n(c2=O)Cc2cc3c(CN(C)C)c(O)ccc3nc2-1 [Topotecan] (100 nM) | CAL-51 | % | 73.3 |
| O=C(NC[C@H](O)CO)c1ccncc1Nc1ccc(I)cc1F (1000 nM) | CAL-51 | % | 78.2 |
| Cc1cccc(-c2nn3c(c2-c2ccnc4ccc(C(N)=O)cc24)CCC3)n1 (100 nM) | CAL-51 | % | 97.6 |
| O=C1c2c(O)ccc(O)c2C(=O)c2c(NCCNCCO)ccc(NCCNCCO)c21 [Mitoxantrone] (100 nM) | CAL-51 | % | 31.2 |
| COc1cc(CCc2cc(NC(=O)c3ccc(N4CC(C)NC(C)C4)cc3)n[nH]2)cc(OC)c1 (stereo not drawn) [AZD4547] (100 nM) | CAL-51 | % | 101 |
| O=C(Nc1c[nH]nc1-c1nc2ccc(CN3CCOCC3)cc2[nH]1)NC1CC1 [AT9283] (1000 nM) | CAL-51 | % | 51.3 |
| CCC/C=C/C=C/C(=O)O[C@H]1/C(=C/C(=O)OC)C[C@H]2C[C@H]([C@@H](C)O)OC(=O)C[C@H](O)C[C@@H]3C[C@H](OC(C)=O)C(C)(C)[C@](O)(C[C@@H]4C/C(=C/C(=O)OC)C[C@H](/C=C/C(C)(C)[C@]1(O)O2)O4)O3 [Bryostatin 1] (10 nM) | CAL-51 | % | 109 |

----------
test system: HCC1143; experiment: normalised response (% of control), CellTox Green; higher = less cell death (100 = DMSO, 0 = benzethonium chloride kill control); conditions: incubation time: 72 h
A collection of compounds and their measured normalised response

| compound | normalised response |
| --- | --- |
| Nc1ccccc1NC(=O)c1ccc(CNc2nccc(-c3cccnc3)n2)cc1 [Mocetinostat] (100 nM) | 101% |
| CC(=O)OC[C@H]1O[C@@H]([S-])[C@H](OC(C)=O)[C@@H](OC(C)=O)[C@@H]1OC(C)=O.CCP(CC)CC.[Au+] [Auranofin] (250 nM) | 123% |
| Cn1cc(CNCC2CCN(c3ncc(C(=O)NO)cn3)CC2)c2ccccc21 [Quisinostat] (100 nM) | 86.2% |
| CCN(CC)CCNC(=O)c1c(C)[nH]c(/C=C2\C(=O)Nc3ccc(F)cc32)c1C [Sunitinib] (10 nM) | 57.7% |
| CC[C@@]1(O)C(=O)OCc2c1cc1n(c2=O)Cc2cc3c(CN(C)C)c(O)ccc3nc2-1 [Topotecan] (1000 nM) | 76.7% |
| CC(=O)OC[C@H]1O[C@@H]([S-])[C@H](OC(C)=O)[C@@H](OC(C)=O)[C@@H]1OC(C)=O.CCP(CC)CC.[Au+] [Auranofin] (25 nM) | 88.9% |
| O=C1c2c(O)ccc(O)c2C(=O)c2c(NCCNCCO)ccc(NCCNCCO)c21 [Mitoxantrone] (100 nM) | 109% |

----------
tested on: MDA-MB-436; assay: normalised response (% of control), CellTox Green; higher = less cell death (100 = DMSO, 0 = benzethonium chloride kill control); details: incubation time: 72 h

| compound | units text | normalised response |
| --- | --- | --- |
| O=S(=O)(c1cccc2cnccc12)N1CCCNCC1 [Fasudil] (50000 nM) | % | 94.4 |
| COc1ccc(-c2cc3c(C)nc(N)nc3n([C@H]3CC[C@H](OCCO)CC3)c2=O)cn1 (100 nM) | % | 97.9 |
| O=C(CCBr)N1CCN(C(=O)CCBr)CC1 [Pipobroman] (100 nM) | % | 101 |
| COc1cc(CCc2cc(NC(=O)c3ccc(N4CC(C)NC(C)C4)cc3)n[nH]2)cc(OC)c1 (stereo not drawn) [AZD4547] (1000 nM) | % | 95.4 |
| CC/C(=C(\c1ccc(O)cc1)c1ccc(OCCN(C)C)cc1)c1ccccc1 [4-hydroxytamoxifen] (10000 nM) | % | 74.7 |
| O=C1c2c(O)ccc(O)c2C(=O)c2c(NCCNCCO)ccc(NCCNCCO)c21 [Mitoxantrone] (1000 nM) | % | 78 |
| CCCCC/C=C/C=C1/C(=O)C=C[C@@H]1C/C=C\CCCC(=O)O [15D-PGJ2] (8 nM) | % | 103 |
| C[C@]12O[C@H](C[C@]1(O)CO)n1c3ccccc3c3c4c(c5c6ccccc6n2c5c31)CNC4=O [Lestaurtinib] (1000 nM) | % | 51.6 |

----------
tested on: MDA-MB-436; experiment: normalised response (% of control), CellTox Green; higher = less cell death (100 = DMSO, 0 = benzethonium chloride kill control); settings: incubation time: 72 h
A collection of compounds and their measured normalised response

| compound | normalised response |
| --- | --- |
| C[C@]12C=CC(=O)C=C1CC[C@@H]1[C@@H]2[C@@H](O)C[C@@]2(C)[C@H]1CC[C@]2(O)C(=O)CO [Prednisolone] (10000 nM) | 60.2% |
| O=C(Nc1c[nH]nc1-c1nc2ccc(CN3CCOCC3)cc2[nH]1)NC1CC1 [AT9283] (100 nM) | 86.7% |
| COc1cc(CCc2cc(NC(=O)c3ccc(N4CC(C)NC(C)C4)cc3)n[nH]2)cc(OC)c1 (centres undefined) [AZD4547] (100 nM) | 91% |
| Cc1nc(Nc2ncc(C(=O)Nc3c(C)cccc3Cl)s2)cc(N2CCN(CCO)CC2)n1 [Dasatinib] (100 nM) | 107% |

----------
test system: DU-4475; assay: normalised viability (% of control), CellTiter-Blue; higher = more viable cells (about 100 = DMSO control); conditions: incubation time: 72 h
Decide using normalised viability alone. Strictly below 80%: label 1. Equal to or above 80%: label 0.

| molecule | class |
| --- | --- |
| O=C(CCBr)N1CCN(C(=O)CCBr)CC1 [Pipobroman] (1000 nM) | label 0 |
| Cc1ccc(Nc2nccc(N(C)c3ccc4c(C)n(C)nc4c3)n2)cc1S(N)(=O)=O [Pazopanib] (1000 nM) | label 0 |
| CCC/C=C/C=C/C(=O)O[C@H]1/C(=C/C(=O)OC)C[C@H]2C[C@H]([C@@H](C)O)OC(=O)C[C@H](O)C[C@@H]3C[C@H](OC(C)=O)C(C)(C)[C@](O)(C[C@@H]4C/C(=C/C(=O)OC)C[C@H](/C=C/C(C)(C)[C@]1(O)O2)O4)O3 [Bryostatin 1] (10 nM) | label 1 |
| Nc1nc(=O)c2c([nH]1)NCC(CNc1ccc(C(=O)N[C@@H](CCC(=O)O)C(=O)O)cc1)N2C=O (mixture of isomers) [Folinic acid] (99 nM) | label 0 |
| O=C(NC[C@H](O)CO)c1ccncc1Nc1ccc(I)cc1F (1000 nM) | label 1 |
